// reported Kd for each item listed
Molecular target: T1, recombinant human B7-H3 (2Ig) protein, with His tag (human, UniProt Q5ZPR3-2 29-245, limits assumed)
T1 construct: Bought protein; also called human B7-H3/CD276 protein
T1 sequence (looked up): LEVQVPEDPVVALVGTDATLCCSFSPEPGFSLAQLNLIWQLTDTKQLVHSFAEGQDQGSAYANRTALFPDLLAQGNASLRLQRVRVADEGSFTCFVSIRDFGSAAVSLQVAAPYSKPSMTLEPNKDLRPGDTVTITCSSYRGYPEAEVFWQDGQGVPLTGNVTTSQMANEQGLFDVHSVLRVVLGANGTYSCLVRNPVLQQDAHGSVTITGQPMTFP
Experiment: SPR (Biacore T200), antibody captured on Protein A chip, His-tagged antigen injected
Description: The fully human anti-human B7-H3 antibodies were tested for their binding affinity to human B7-H3 (4Ig), human B7-H3 (2Ig), monkey B7-H3 (monkey B7-H3/CD276 protein, with His tag, Cat #: B73-C52Ha, ACROBiosystems) and mouse B7-H3 protein (mouse B7-H3/CD276 protein, with His tag, Cat #: B73-M52H4, ACROBiosystems) by surface plasmon resonance (SPR) using Biacore T200 biosensor (Biacore, US) provided with a pre-fixed Protein A sensor chip. […]
Reported metric: Kd (nM)

Binder: Enoblituzumab (antibody, human IgG1, kappa, V domains shown, Humanized anti-B7-H3 antibody of MacroGenics with optimised Fc, used as the positive control; also called AbEno; enoblituzumab-IgG1-Mut) VH: EVQLVESGGGLVQPGGSLRLSCAASGFTFSSFGMHWVRQAPGKGLEWVAYISSDSSAIYYADTVKGRFTISRDNAKNSLYLQMNSLRDEDTAVYYCGRGRENIYYGSRLDYWGQGTTVTVSS VL: DIQLTQSPSFLSASVGDRVTITCKASQNVDTNVAWYQQKPGKAPKALIYSASYRYSGVPSRFSGSGSGTDFTLTISSLQPEDFATYYCQQYNNYPFTFGQGTKLEIKR
Reported metric: Kd
Val: 275
//
Binder: 10F5 (antibody, human IgG1, kappa, V domains shown, also called Ab10F5) VH: QVQLVQSGAEVKKPGSSVKVSCKASGGTFSSQAISWVRQAPGQGLEWMGRIIPMLGIGDYAQSFQGRVTITADKSTSTAYLEVSSLGSEDTAVYYCAREGIAALGTNYYYGMDVWGQGTAVTVSS VL: EIVMTQSPSSVSASVGDRVTITCRASQGISRWLAWYQQKPGKAPKLLIYVASSLQSGVPSRFSGSGSGTDFTLTISSLQPEDFATYYCQQANSFPFTFGPGTKVDIRR
Reported metric: Kd
Val: 10.4
//
Binder: 10D7 (antibody, human IgG1, kappa, V domains shown, also called 10D7-WT; Ab10D7) VH: QVQLVQSGPGLVKPSETLSLTCTVSGGSISRSSYYWGWIRQPPGKGLEWIGNIFYAGSTYYNPSLKSRVTISVDTSKNQFSLKLSSVTAADTAVYYCARRITGTTGWFDPWGQGTLVTVSS VL: DIQLTQSPSSLSASVGDRVTITCRASQGIRNDLGWYQQKPGKAPKLLIYAASTLQSGVPSRFSGSGSGTDFTLTISSLQPEDFATYYCLQDYNYPRTFGQGTKVEIKR
Reported metric: Kd
Val: 386
//
Binder: 6B5 (antibody, human IgG1, kappa, V domains shown, also called 6B5-WT; Ab6B5) VH: QVQLVESGPGLVKPSQTLSLTCTVSDGSISSGGYYWSWIRQHPGKGLEWIGYIYYSGGTYYSPSLKSRVTISVDTSKNQFSLKLTSVTAADTAVYYCARRAGYSSSFDSWGQGILVTVSS VL: EIVLTQSPLSLPVTPGEPASISCRSSQSLLYSNGYTYLDWYLQKPGQSPQFLIYLGFNRASGVPDRFSGSGSGTDFTLKISRVEAEDVGVYYCMQGLQTPYTFGQGTKLEIKR
Reported metric: Kd
Val: 51.5

From: patent US20260125477A1
